Each item that follows carries a reported pIC50.
system: Aβ40 in conditioned medium of cells stably expressing Amyloid Precursor Protein (APP); assay: In vitro BACE cell-based assay (HEK cell assay), Aβ40 sandwich ELISA; details: inhibition of Aβ40, 24 h incubation, read-out: HEK cell assay (IC50 class)
pIC50: −log10 of the molar value.

Cc1cccc(/C(=N/O)c2ccccc2)c1-c1ccc2nc(N)c(N3CCOCC3)cc2c1 [Example 190]
6.30 to 7.00

Q: Name the reported pIC50 value associated with the compound Cc1cccc(C(=NO)c2ccccc2)c1-c1ccc2nc(N)c(N3CCOCC3)cc2c1 (stereo in doubt) [Example 16]
A: 6.00 to 6.30

* * *

Each item that follows carries a reported IC50.
target: BACE1 (Homo sapiens, UniProt P56817); assay: In vitro enzymatic BACE FRET assay; assay type: biochemical; conditions: beta secretase enzyme 0.2 nM, FRET substrate 50 nM, pH 4.2; read-out: BACE1 FRET assay (IC50 class)
Sequence (P56817 46-501, species assumed): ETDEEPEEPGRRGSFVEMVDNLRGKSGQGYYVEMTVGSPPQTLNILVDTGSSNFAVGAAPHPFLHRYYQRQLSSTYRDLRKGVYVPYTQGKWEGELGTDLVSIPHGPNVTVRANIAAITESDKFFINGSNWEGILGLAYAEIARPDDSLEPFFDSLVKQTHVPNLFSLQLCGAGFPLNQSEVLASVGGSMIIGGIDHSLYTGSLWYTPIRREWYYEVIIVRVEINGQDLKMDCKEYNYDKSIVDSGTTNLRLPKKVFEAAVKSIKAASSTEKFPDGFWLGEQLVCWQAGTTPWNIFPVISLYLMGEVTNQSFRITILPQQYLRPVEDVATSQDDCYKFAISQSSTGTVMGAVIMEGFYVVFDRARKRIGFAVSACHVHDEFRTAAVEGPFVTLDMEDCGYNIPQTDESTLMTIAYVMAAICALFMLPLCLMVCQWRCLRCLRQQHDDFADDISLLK

Cc1cccc(C(=O)CC(C)C)c1-c1ccc2nc(N)c(N3CCOCC3)cc2c1
< 100 nM
COc1ccccc1C(N)c1cccc(C)c1-c1ccc2nc(N)c(N3CCOCC3)cc2c1 (centres unmarked)
< 100 nM
Cc1cccc(C(=O)N(C)C2CCCCC2)c1-c1ccc2nc(N)c(N3CCOCC3)cc2c1
< 100 nM

Q: Name the reported IC50 value associated with the compound `CCCN(C(=O)c1cccc(C)c1-c1ccc2nc(N)c(N3CCOCC3)cc2c1)C(C)C`
A: 501 to 1000 nM

Q: Here is the next compound: `Cc1cccc(C(=O)N2CCC(F)(F)C2)c1-c1ccc2nc(N)c(N3CCOCC3)cc2c1`
A: < 100 nM

Q: Here is the next compound: `Cc1cccc(C(=O)N(C)CCC(C)C)c1-c1ccc2nc(N)c(N3CCOCC3)cc2c1`
A: 100 to 500 nM

Q: Here is the next compound: `CCN(C)C(=O)c1cccc(C)c1-c1ccc2nc(N)c(N3CCOCC3)cc2c1`
A: 100 to 500 nM

Q: Here is the next compound: `Cc1cccc(C(=O)N(C)Cc2ccccc2)c1-c1ccc2nc(N)c(N3CCOCC3)cc2c1`
A: 100 to 500 nM

* * *

molecular target: BACE1 (Homo sapiens, UniProt P56817); test: In vitro enzymatic BACE FRET assay; type: biochemical; conditions: beta secretase enzyme 0.2 nM, FRET substrate 50 nM, pH 4.2; read-out: BACE1 FRET assay (IC50 class)
pIC50: −log10 of the molar value.
Each item that follows carries a reported pIC50.

Solved cases below.
Cc1cccc(C(=O)N2CCCC2)c1-c1ccc2nc(N)c(N3CCCCC3)cc2c1
6.00 to 6.30
CCOC(=O)c1cccc(C)c1-c1ccc2nc(N)c(N3CCOCC3)cc2c1
6.30 to 7.00
Cc1cccc(Oc2ccccc2)c1-c1ccc2nc(N)c(N3CCOCC3)cc2c1
> 7.00
Nc1nc2ccc(-c3c(CCc4ccccc4)cccc3C(=O)N3CCCC3)cc2cc1N1CCOCC1
> 7.00
Nc1nc2ccc(-c3ccccc3-n3ncc4c3CCCC4)cc2cc1N1CCOCC1
6.30 to 7.00
CCN(C(=O)c1cccc(C)c1-c1ccc2nc(N)c(N3CCOCC3)cc2c1)C1CCCCC1
6.30 to 7.00
Cc1cc(F)cc(C(=O)N2CC[C@@H](F)C2)c1-c1ccc2nc(N)c(N3CCOCC3)cc2c1
> 7.00

Q: Name the reported pIC50 value associated with the molecule `Cc1ccccc1-c1ccc2nc(N)c(N3CCOCC3)cc2c1`
A: 6.00 to 6.30

* * *

Each item that follows carries a reported IC50.
target: BACE1 (Homo sapiens, UniProt P56817); assay: In vitro enzymatic BACE FRET assay; format: biochemical; conditions: beta secretase enzyme 0.2 nM, FRET substrate 50 nM, pH 4.2; read-out: BACE1 FRET assay (IC50 class)

Solved cases below.
CCCC1CCN(C(=O)c2cccc(C)c2-c2ccc3nc(N)c(N4CCOCC4)cc3c2)CC1
< 100 nM
Cc1cccc(C(=O)N(C)CC(C)(C)C)c1-c1ccc2nc(N)c(N3CCOCC3)cc2c1
< 100 nM
COC1CCCN(C(=O)c2cccc(C)c2-c2ccc3nc(N)c(N4CCOCC4)cc3c2)C1 (stereo not shown)
100 to 500 nM

Please look at the following compound next.
Q: Name the reported IC50 value associated with the compound `COc1ccccc1C(=O)c1cccc(C)c1-c1ccc2nc(N)c(N3CCOCC3)cc2c1`
A: < 100 nM

* * *

target: BACE1 (Homo sapiens); experiment: In vitro enzymatic BACE FRET assay; assay type: biochemical; settings: beta secretase enzyme 0.2 nM, FRET substrate 50 nM, pH 4.2; read-out: BACE1 FRET assay (IC50 class)
Each item that follows carries a reported IC50.

Solved cases below.
Nc1nc2ccc(-c3ccccc3C(=O)N3CCCC3)cc2cc1N1CCOCC1
100 to 500 nM
CCCN(C)C(=O)c1cccc(C)c1-c1ccc2nc(N)c(N3CCOCC3)cc2c1
100 to 500 nM
CCCC1CCCCN1C(=O)c1cccc(C)c1-c1ccc2nc(N)c(N3CCOCC3)cc2c1 (centres unmarked)
100 to 500 nM
Cc1cccc(CCC(C)(C)C)c1-c1ccc2nc(N)c(N3CCOCC3)cc2c1
< 100 nM
Nc1nc2ccc(-c3cccc(Cl)c3C(=O)N3CCCC3)cc2cc1N1CCOCC1
1010 to 5000 nM
Cc1cccc(C(=NO)c2ccccc2)c1-c1ccc2nc(N)c(N3CCOCC3)cc2c1 (stereo in doubt)
< 100 nM
Cc1cccc(C(=O)N(C)c2ccccc2)c1-c1ccc2nc(N)c(N3CCOCC3)cc2c1
100 to 500 nM

Q: Name the reported IC50 value associated with the compound `Cc1cccc(C(=O)N2CCC(F)(F)C2)c1-c1ccc2nc(N)c(C3CCOCC3)cc2c1`
A: < 100 nM

* * *

molecular target: BACE1 (Homo sapiens); test: In vitro enzymatic BACE FRET assay; format: biochemical; conditions: beta secretase enzyme 0.2 nM, FRET substrate 50 nM, pH 4.2; read-out: BACE1 FRET assay (IC50 class)
Each item that follows carries a reported IC50.

Q: Recall the recorded IC50 for `C#CCN(C)C(=O)c1cccc(C)c1-c1ccc2nc(N)c(N3CCOCC3)cc2c1` with BACE1 (Homo sapiens) and state it.
A: < 100 nM

Q: Here is the next compound: `Cc1ccc(C(=O)N2CCCC2)c(-c2ccc3nc(N)c(N4CCOCC4)cc3c2)c1`
A: < 100 nM

Q: Here is the next compound: `Cc1cccc(Cc2cnccn2)c1-c1ccc2nc(N)c(N3CCOCC3)cc2c1`
A: 501 to 1000 nM

Q: Here is the next compound: Cc1cccc(C(=O)N2CCCC(C)C2)c1-c1ccc2nc(N)c(N3CCOCC3)cc2c1 (stereo not shown)
A: < 100 nM

* * *

target: BACE1 (Homo sapiens, UniProt P56817); experiment: In vitro enzymatic BACE FRET assay; type: biochemical; conditions: beta secretase enzyme 0.2 nM, FRET substrate 50 nM, pH 4.2; read-out: BACE1 FRET assay (IC50 class)
pIC50: −log10 of the molar value.
Each item that follows carries a reported pIC50.

COC[C@H]1CCCN1C(=O)c1cccc(C)c1-c1ccc2nc(N)c(N3CCOCC3)cc2c1 [Example 70]
6.30 to 7.00
Cc1cccc(C(=O)N2CCCC2)c1-c1ccc2nc(N)c(C3CCOCC3)cc2c1 [Example 28]
> 7.00
Cc1ccc(C2(C)CN(c3cc4cc(-c5c(C)cccc5C(=O)N5CCCC5)ccc4nc3N)CCO2)cc1 (centres unmarked) [Example 217]
6.30 to 7.00
Cc1cccc(N(C)C(=O)CC(C)(C)C)c1-c1ccc2nc(N)c(N3CCOCC3)cc2c1 [Example 50]
6.00 to 6.30
CC(C)(C)CCc1cccc(C(=O)N2CC[C@H](F)C2)c1-c1ccc2nc(N)c(N3CCOCC3)cc2c1 [Example 166]
> 7.00
CC(C)(C)CC(=O)c1cccc(C(=O)N2CCCC2)c1-c1ccc2nc(N)c(N3CCOCC3)cc2c1 [Example 46]
> 7.00
Cc1cccc(C(=O)N2CCCCC2C)c1-c1ccc2nc(N)c(N3CCOCC3)cc2c1 (centres unmarked) [Example 87]
> 7.00
Nc1nc2ccc(-c3c(C#Cc4ccccc4)cccc3C(=O)N3CCCC3)cc2cc1N1CCOCC1 [Example 161]
> 7.00
COC1CCN(C(=O)c2cccc(C)c2-c2ccc3nc(N)c(N4CCOCC4)cc3c2)CC1 [Example 72]
> 7.00
CCOC(=O)c1cc(F)cc(C)c1-c1ccc2nc(N)c(N3CCOCC3)cc2c1 [Example 129]
6.30 to 7.00

Please look at the following compound next.
Q: Name the reported pIC50 value associated with the compound Cc1cccc(C(=O)N(C)C2CCCC2)c1-c1ccc2nc(N)c(N3CCOCC3)cc2c1 [Example 92]
A: > 7.00
